B1: library; numbered along this chain (parent)
chain: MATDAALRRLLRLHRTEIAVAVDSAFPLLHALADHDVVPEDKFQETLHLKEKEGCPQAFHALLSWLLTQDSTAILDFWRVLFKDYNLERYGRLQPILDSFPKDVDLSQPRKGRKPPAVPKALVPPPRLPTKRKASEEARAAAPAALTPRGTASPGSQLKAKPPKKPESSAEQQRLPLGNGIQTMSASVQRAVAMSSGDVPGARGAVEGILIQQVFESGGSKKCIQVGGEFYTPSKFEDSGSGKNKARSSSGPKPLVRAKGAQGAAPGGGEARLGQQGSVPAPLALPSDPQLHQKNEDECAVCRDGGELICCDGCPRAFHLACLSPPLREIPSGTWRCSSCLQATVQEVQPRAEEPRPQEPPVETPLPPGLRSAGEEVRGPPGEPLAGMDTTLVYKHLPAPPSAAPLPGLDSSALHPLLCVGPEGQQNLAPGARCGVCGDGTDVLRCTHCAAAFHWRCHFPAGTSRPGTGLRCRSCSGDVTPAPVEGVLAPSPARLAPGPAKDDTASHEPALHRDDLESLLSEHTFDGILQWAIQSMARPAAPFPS

variants of: B1; test: AIRE transcriptional activation functional score (insulin promoter-GFP; nonsense median 0, synonymous median 1) (normalised score); higher = higher AIRE activity (more reporter activation); conditions: with insulin promoter-GFP reporter in HEK293
Collected AIRE transcriptional activation functional score values appear next to each entry.
// no unit, no text: just the number

Guide cases for AIRE transcriptional activation functional score, answers given:
L495M: 0.186
A73V: 1.1
A281R: 1.15
G227C: 0.85
P499D: 0.797
D288Q: 0.949
L323K: 1.19
L397G: 0.775
W455I: 0.29
E270Q: 1.15

Look up AIRE transcriptional activation functional score for this variant: `D389Y`
0.964
